# TESTED_TARGET: T1, recombinant human DLL4 (C-terminally His-tagged extracellular domain, R&D Systems) (human, UniProt Q9NR61 25-522, biotinylated in the competition ELISA)
# T1 construct: also called rhDLL4; hDLL4
# T1 sequence (Q9NR61 25-522): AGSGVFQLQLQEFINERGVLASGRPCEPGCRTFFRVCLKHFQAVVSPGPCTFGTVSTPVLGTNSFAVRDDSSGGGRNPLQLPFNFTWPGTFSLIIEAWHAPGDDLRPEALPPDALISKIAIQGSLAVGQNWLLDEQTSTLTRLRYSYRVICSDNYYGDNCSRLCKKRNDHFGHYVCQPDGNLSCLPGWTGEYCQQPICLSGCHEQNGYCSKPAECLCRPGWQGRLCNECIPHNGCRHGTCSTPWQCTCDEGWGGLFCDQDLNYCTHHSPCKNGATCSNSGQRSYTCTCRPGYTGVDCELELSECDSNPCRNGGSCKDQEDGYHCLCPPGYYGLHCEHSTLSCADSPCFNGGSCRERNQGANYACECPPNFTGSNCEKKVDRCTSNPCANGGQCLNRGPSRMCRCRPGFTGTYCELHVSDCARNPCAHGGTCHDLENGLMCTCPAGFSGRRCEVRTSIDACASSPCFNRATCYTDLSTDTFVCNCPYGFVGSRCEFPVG
# PROTOCOL_TEXT: ProteOn off-rate screen, periplasmic extract, coated human DLL4
Listed binders paired with reported fold (off-rate vs DLLBII101G08)
Quick note: unit goes after the number.

Worked cases, fold (off-rate vs DLLBII101G08) given:
DLLBII129H04 (VHH) VHH: EVQLVESRGGLVQAGGSLRLSCAASGRTFSSYAMAWFRQAPGKEREYVAAIRWSGGTAYYADSVQGRFTISRDNAKNTVYLQMNSLKPEDTAVYYCANRAPDTRLEPYLYDHWGQGTQVTVSS    33 fold
DLLBII130B02 (VHH) VHH: EVQLVESGGGLVQAGGSLRLSCAASGRTFSSYAMAWFRQAPGKEREYVAAIRWSGGTAYYADSVQGRFTISRDNAKNTVYLQMYSLKPEDTAVYYCANRAPDTRLAPYLYDHWGQGTQVTVSS    23 fold
DLLBII130D06 (VHH) VHH: EVQLVESGGGLVQAGGSLRLSCSASGRTFSSYAMAWYRQAPGKEREYVAAIRWSGETAYYADSVQGRFTISRDNAKNTVYLQMNSLKPEDTAVYYCANRAPDTRLEPYLYDHWGQGTQVTVSS    26 fold

Q) If you can, please state the reported fold (off-rate vs DLLBII101G08) value of DLLBII129H02 (VHH) VHH: EVQLVESGGGLVQAGGSLRLSCAASGRTFSSYAMAWYRQAPGKEREYVAAIRWSGGTAYYADSVQGRFTISRDNAKNTVYLQMNSLKPEDTAVYYCANRAPDTRLRPYEYDYWGQGTQVTVSS .
A) 23 fold
